Sourced from PubChem BioAssay AID1159580

Experiment: chemical genetic growth profiling, strain panel (AID 1159580);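 further: tested at 20 µM; growth read once vehicle control cultures reached saturation at 30 °C; 1 = growth at the plate median or of vehicle wells; lower values mean less growth of the strain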
Conditions: S. cerevisiae deletion strains, growth OD, locus YDL101C, strain DUN1
About 2,000 (36%) of roughly 5,500 compounds were called active. Inconclusive results (about 18%) are left out. No stated cut-off is given here; in the data, active means normalized growth mostly below about 0.91 (no sharp cut-off); inconclusive means no clear call, values can overlap the other calls; inactive means mostly above about 0.92. Some of the results follow.
Labels: true = active, false = inactive

compound	class
O=c1cc(-c2cc(O)c(O)c(O)c2)oc2cc(O)cc(O)c12	false
Cc1nn(Cc2n[nH]c(=S)o2)c(C)c1Br	false
CCCCSP(=O)(SCCCC)SCCCC	false
O=c1cc(-c2ccccc2)oc2cc(O)c(O)c(O)c12	true
C[C@@H]1O[C@@H](O[C@H]2C[C@@H](O)[C@]3(CO)C4C(CC[C@]3(O)C2)[C@@]2(O)CC[C@H](C3=CC(=O)OC3)[C@@]2(C)C[C@H]4O)[C@H](O)[C@H](O)[C@H]1O (stereo partly drawn)	false
COc1ccc(C(=O)N2CCCC2=O)cc1	false
CC(=O)OCC(=O)[C@@]1(O)[C@H](OC(C)=O)CC2C3CCC4=CC(=O)C=C[C@]4(C)[C@@]3(F)[C@@H](O)C[C@@]21C (stereo partly drawn)	false
Cc1cc(=O)oc2c(O)c(O)ccc12	false
COc1ccc(N=Cc2ccccc2O)cc1	false
CC(CCC(=O)O)[C@H]1CCC2C3CC[C@@H]4C[C@H](O)CC[C@]4(C)C3C[C@H](O)[C@@]21C (stereo partly drawn)	false
COc1ccc2c(c1)CCCN2C(=O)NC(=O)c1c(F)cccc1Cl	false
Cc1cc(C)cc(OCC2CNC(=O)O2)c1 (stereo not drawn)	false
c1ccc2c(c1)CN1CCCC1=N2	false
C/C(=N/Nc1c(Cl)cc(Cl)cc1Cl)c1cc(F)ccc1OC(=O)c1ccccc1F	false
O=C(O)CCOc1ccc(Cl)cc1	false
CCN(CCCc1ccccc1)CCCc1ccccc1	false
Cc1cc(CN2CC(C)OC(C)C2)cc(C)c1O (stereo not drawn)	false
O=C(Nc1nccs1)c1ccc([N+](=O)[O-])cc1	false

* * *

Experiment: chemical genetic growth profiling, strain panel (AID 1159580);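 further: tested at 20 µM; growth read once vehicle control cultures reached saturation at 30 °C; 1 = growth at the plate median or of vehicle wells; lower values mean less growth of the strain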
Details: S. cerevisiae deletion strains, growth OD, locus YLR027C, strain aat2, active compounds read low
Among all 5,500 compounds or so, about 2,000 (36%) were called active. Not shown: some 18% with an inconclusive outcome. The list shows a part of the results.
experimentalReadout: normalized growth

                                    molecule    reportedresult
 0  CC1(C)C(O)CC(O)C2(C)C1CC(O)C1(C)C2CCC2(C)C(c3ccoc3)OC(=O)C3OC321 (stereo unspecified)  0.999 (inactive)
 1  N[C@H](Cc1cc(I)c(Oc2ccc(O)c(I)c2)c(I)c1)C(=O)O  0.968 (inactive)
 2  NS(=O)(=O)c1cc2c(cc1Cl)NC(C1CC3C=CC1C3)NS2(=O)=O (stereo unspecified)  0.995 (inactive)
 3  C=C1C(C2(C)C=CC(=O)C(C)(C)C2CC(=O)OC)CC[C@@]2(C)[C@H](c3ccoc3)OC(=O)C3OC132 (stereo partly specified)  0.978 (inactive)
 4                 COC(=O)CCCOc1ccc(Cl)cc1Cl  0.952 (inactive)
 5  CN(C)CCOC(=O)C(c1ccccc1)C1(O)CCCC1 (stereo unspecified)  0.985 (inactive)
 6                  CCC(=O)Nc1ccc(Cl)c(Cl)c1      1 (inactive)
 7  Nc1cc(C(Cl)=C(Cl)Cl)c(S(N)(=O)=O)cc1S(N)(=O)=O   1.02 (inactive)
 8  C[C@]12C=CC(=O)C=C1CCC1C3C[C@@H](O)[C@](O)(C(=O)CO)[C@@]3(C)C[C@H](O)[C@@]12F (stereo partly specified)  0.998 (inactive)
 9  CCOC(=O)[C@H](CCc1ccccc1)N[C@@H](C)C(=O)N1Cc2ccccc2C[C@H]1C(=O)O  0.994 (inactive)
10            O=c1cc(-c2ccccc2)oc2cccc(O)c12  0.934 (inactive)
